target: ubiquitin-specific protease 28 (USP28) (Homo sapiens)
Construct: endogenous, NCI-H520 cell extracts and intact cells
Sequence (Q96RU2 whole entry): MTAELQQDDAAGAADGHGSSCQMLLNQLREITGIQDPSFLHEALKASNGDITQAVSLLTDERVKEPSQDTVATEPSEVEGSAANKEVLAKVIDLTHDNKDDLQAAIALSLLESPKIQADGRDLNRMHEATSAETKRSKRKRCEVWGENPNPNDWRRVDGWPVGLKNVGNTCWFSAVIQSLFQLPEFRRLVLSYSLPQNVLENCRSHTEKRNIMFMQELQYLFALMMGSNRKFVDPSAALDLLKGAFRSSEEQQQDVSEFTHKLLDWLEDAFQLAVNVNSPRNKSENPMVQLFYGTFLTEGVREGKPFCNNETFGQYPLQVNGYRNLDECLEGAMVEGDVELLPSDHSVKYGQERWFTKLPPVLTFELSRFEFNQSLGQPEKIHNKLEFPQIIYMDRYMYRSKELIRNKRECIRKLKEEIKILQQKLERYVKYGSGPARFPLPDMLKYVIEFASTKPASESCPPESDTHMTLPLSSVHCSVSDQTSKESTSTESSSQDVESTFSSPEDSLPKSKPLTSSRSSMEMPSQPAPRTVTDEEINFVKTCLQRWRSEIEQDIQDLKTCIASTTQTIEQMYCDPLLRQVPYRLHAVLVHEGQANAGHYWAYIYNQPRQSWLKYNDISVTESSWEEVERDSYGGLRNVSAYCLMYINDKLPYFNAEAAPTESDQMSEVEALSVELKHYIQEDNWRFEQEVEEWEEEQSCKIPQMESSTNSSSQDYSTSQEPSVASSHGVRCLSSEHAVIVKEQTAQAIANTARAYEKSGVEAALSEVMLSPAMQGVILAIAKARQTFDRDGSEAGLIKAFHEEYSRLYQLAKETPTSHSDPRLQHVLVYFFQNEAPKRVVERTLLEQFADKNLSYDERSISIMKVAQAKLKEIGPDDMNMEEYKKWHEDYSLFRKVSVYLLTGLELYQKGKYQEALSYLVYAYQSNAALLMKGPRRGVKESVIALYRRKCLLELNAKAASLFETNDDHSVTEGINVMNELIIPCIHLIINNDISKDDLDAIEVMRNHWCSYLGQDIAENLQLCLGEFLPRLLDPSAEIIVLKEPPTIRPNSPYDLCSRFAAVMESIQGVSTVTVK
assay_notes: competition with HA-UbPA activity-based probe labelling (Western blot) in NCI-H520 extract and cells; ABPP mass spectrometry
Format: biochemical
readout_label: EC50

Report value only: EC50, ubiquitin-specific protease 28 (USP28) (Homo sapiens), Cc1ccc2c(N)c(C(=O)N[C@H]3CCc4cc(N5CC6CCC(C5)N6)ccc4C3)sc2n1 [FT206]
300 to 1000 nM

Value source: paper PMC8553340
